# credit: patent EP4678644A1

molecular target: PDE4B2 (Homo sapiens, UniProt Q07343); construct: expressed in transfected cells; host or cells: Flp-In-293 (Flpin-293-PDE4B2 [sic]); assay: PDE4B2 enzyme experiment (AMP-glo, cAMP substrate); format: biochemical
Sequence (Q07343 1-564 isoform Q07343-2): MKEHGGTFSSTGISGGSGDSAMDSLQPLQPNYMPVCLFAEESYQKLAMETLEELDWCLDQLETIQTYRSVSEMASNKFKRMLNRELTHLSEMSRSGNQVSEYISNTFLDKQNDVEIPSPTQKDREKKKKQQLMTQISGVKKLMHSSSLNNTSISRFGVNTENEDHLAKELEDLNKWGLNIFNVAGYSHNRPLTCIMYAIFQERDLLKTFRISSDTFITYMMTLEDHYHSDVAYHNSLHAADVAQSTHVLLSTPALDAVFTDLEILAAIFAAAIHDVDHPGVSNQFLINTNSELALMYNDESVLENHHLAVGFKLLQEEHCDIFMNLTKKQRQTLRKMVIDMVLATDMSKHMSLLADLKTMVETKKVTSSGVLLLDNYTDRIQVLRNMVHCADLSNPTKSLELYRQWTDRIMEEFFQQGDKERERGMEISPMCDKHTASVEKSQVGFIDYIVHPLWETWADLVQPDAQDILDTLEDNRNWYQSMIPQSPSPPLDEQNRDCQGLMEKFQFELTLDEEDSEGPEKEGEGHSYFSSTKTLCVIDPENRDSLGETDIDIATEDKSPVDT
pIC50: −log10 of the molar value.
Rule: pIC50 of 9 or more gives satisfied; anything lower gives not satisfied.

Data request: I'd appreciate it if you could say whether O=C(O)Cc1ccc(Nc2nc(N3CCc4cc(Cl)ccc4C3)nc3c2[S@@+]([O-])CC3)cc1 has pIC50 at least equal to 9.
Data returned: not satisfied

Data request: I'd appreciate it if you could say whether [O-][S+]1CCc2nc(N3CCc4sccc4C3)nc(NC3(CO)CCC3)c21 (stereo not shown) has pIC50 at least equal to 9.
Data returned: not satisfied

Data request: I'd appreciate it if you could say whether [O-][S+]1CCc2nc(N3CCc4cc(C(F)(F)F)ccc4C3)nc(NC3(CO)CCC3)c21 (stereo not shown) has pIC50 at least equal to 9.
Data returned: satisfied

Data request: I'd appreciate it if you could say whether CN1CCN(c2ccc3c(c2)CCN(c2nc4c(c(NC5(CO)CCC5)n2)[S+]([O-])CC4)C3)C1=O (stereo not shown) has pIC50 at least equal to 9.
Data returned: satisfied

Data request: I'd appreciate it if you could say whether [O-][S+]1CCc2nc(N3CCc4cc(F)ccc4C3)nc(NC3(CO)CCC3)c21 (stereo not shown) has pIC50 at least equal to 9.
Data returned: not satisfied

Data request: I'd appreciate it if you could say whether Cn1cnc(-c2ccc3c(c2)CCN(c2nc4c(c(NC5(CO)CCC5)n2)[S+]([O-])CC4)C3)n1 (stereo not shown) has pIC50 at least equal to 9.
Data returned: satisfied

Data request: I'd appreciate it if you could say whether CS(=O)(=O)c1ccc2c(c1)CCN(c1nc3c(c(NC4(CO)CCC4)n1)[S+]([O-])CC3)C2 (stereo not shown) has pIC50 at least equal to 9.
Data returned: satisfied

Data request: I'd appreciate it if you could say whether [O-][S+]1CCc2nc(N3CCc4cc(N5CCCC5)ccc4C3)nc(NC3(CO)CCC3)c21 (stereo not shown) has pIC50 at least equal to 9.
Data returned: satisfied

Data request: I'd appreciate it if you could say whether [O-][S@+]1CCc2nc(N3CCn4c(nc5ccc(Cl)cc54)C3)nc(NC3(CO)CCC3)c21 has pIC50 at least equal to 9.
Data returned: satisfied

Data request: I'd appreciate it if you could say whether [O-][S@+]1CCc2nc(N3CC[C@@H]4c5ccc(Cl)cc5OC[C@H]4C3)nc(NC3(CO)CCC3)c21 has pIC50 at least equal to 9.
Data returned: satisfied

Data request: I'd appreciate it if you could say whether COc1ccc2sc3c(c2c1)CCN(c1nc2c(c(NC4(CO)CCC4)n1)[S+]([O-])CC2)C3 (stereo not shown) has pIC50 at least equal to 9.
Data returned: satisfied

Data request: I'd appreciate it if you could say whether [O-][S+]1CCc2nc(N3Cc4ccc(Br)cc4C3)nc(NC3(CO)CCC3)c21 (stereo not shown) has pIC50 at least equal to 9.
Data returned: not satisfied

Data request: I'd appreciate it if you could say whether [O-][S+]1CCc2nc(N3CCc4cc(-n5cccn5)ccc4C3)nc(NC3(CO)CCC3)c21 (stereo not shown) has pIC50 at least equal to 9.
Data returned: satisfied

Data request: I'd appreciate it if you could say whether [O-][S+]1CCc2nc(N3CCc4scnc4C3)nc(NC3(CO)CCC3)c21 (stereo not shown) has pIC50 at least equal to 9.
Data returned: not satisfied

Data request: I'd appreciate it if you could say whether O=C(O)Cc1ccc(Nc2nc(N3CCc4cc(Cl)ccc4C3)nc3c2[S@+]([O-])CC3)cc1 has pIC50 at least equal to 9.
Data returned: satisfied

Data request: I'd appreciate it if you could say whether [O-][S+]1CCc2nc(N3CCc4c(c(NCCO)nc5cc(Cl)ccc45)C3)nc(NC3(CO)CCC3)c21 (stereo not shown) has pIC50 at least equal to 9.
Data returned: satisfied

Data request: I'd appreciate it if you could say whether [O-][S+]1CCc2nc(N3CCc4c(nn5cc(F)ccc45)C3)nc(NC3(CO)CCC3)c21 (stereo not shown) has pIC50 at least equal to 9.
Data returned: satisfied

Data request: I'd appreciate it if you could say whether [O-][S+]1CCc2nc(N3CCc4c(ncc5cc(Cl)ccc45)C3)nc(NC3(CO)CCC3)c21 (stereo not shown) has pIC50 at least equal to 9.
Data returned: satisfied

Data request: I'd appreciate it if you could say whether [O-][S+]1CCc2nc(N3CCc4ccc(Cl)cc4CC3)nc(NC3(CO)CCC3)c21 (stereo not shown) has pIC50 at least equal to 9.
Data returned: not satisfied

Data request: I'd appreciate it if you could say whether [O-][S@@+]1CCc2nc(N3CCc4nn5cc(Cl)cnc5c4C3)nc(NC3(CO)CCC3)c21 has pIC50 at least equal to 9.
Data returned: not satisfied

Data request: I'd appreciate it if you could say whether [O-][S+]1CCc2nc(N3CCc4cc(Br)ccc4C3)nc(NC3(CO)CCC3)c21 (stereo not shown) has pIC50 at least equal to 9.
Data returned: satisfied
